# Method Notes: In vitro cytotoxicity by MTT assay, HEK 293
# Assay type: cell-based, human
# Condition Label: human, HEK 293 cells, 0.015 μM, read-out: % cytotoxicity (100 − % cell survival) of HEK 293 cell line
# Experimental: The cancer cell line cultures of HEK 293 ([…]), BT474 (breast cancer cell line) and NCI-H226 (lung cancer) were obtained from Pasteur Institute of India, Coonoor, India, and were cultured in RPMI-1640 and 10 % heat-[…] New born calf serum with antibiotics [penicillin ([…]), streptomycin (100 μg/mL) and amphotericin B (25 μg/mL)]. The cells were maintained at 37 °C in a humidified atmosphere with 5 % CO2 and were subcultured twice a week. […]
cytotoxicity at 72 h, 0.015 µM strictly less than 30% = Yes. Otherwise No.

Completed entries (count: 5):
compound=CN(C)c1ccc(C=Nc2nnc(S(=O)(=O)NC(=O)c3ccccc3)s2)cc1 label=No
compound="NS(=O)(=O)c1ccc(S(=O)(=O)Nc2cccc3c(Cl)c[nH]c23)cc1 [ISL, indisulam, reference compound]" label=No
compound=Nc1ccc(C(=O)NS(=O)(=O)c2nnc(NS(=O)(=O)c3ccc(N)cc3)s2)cc1 label=No
compound=CC(=O)Nc1ccc(S(=O)(=O)Nc2nnc(S(=O)(=O)NC(=O)c3ccccc3O)s2)cc1 label=No
compound=O=C(NS(=O)(=O)c1nnc(N=Cc2ccco2)s1)c1ccccc1 label=No

For COc1ccc(C=Nc2nnc(S(=O)(=O)NC(=O)c3ccccc3)s2)cc1 , is the recorded cytotoxicity at 72 h, 0.015 µM below the cut-off of 30%? No

I'd appreciate it if you could check whether Nc1ccc(S(=O)(=O)Nc2nnc(S(=O)(=O)NC(=O)c3ccc([N+](=O)[O-])cc3)s2)cc1 has cytotoxicity at 72 h, 0.015 µM smaller than 30%. Yes

Item Nc1nnc(S(=O)(=O)NC(=O)c2cccc([N+](=O)[O-])c2)s1 : cytotoxicity at 72 h, 0.015 µM beneath 30%, strictly? Yes

For this compound, is cytotoxicity at 72 h, 0.015 µM lower than 30%? CC(=O)Nc1ccc(S(=O)(=O)Nc2nnc(S(=O)(=O)NC(=O)c3ccccc3)s2)cc1 Yes

Hello, I'm reviewing records and need to know if cytotoxicity at 72 h, 0.015 µM of O=C(NS(=O)(=O)c1nnc(N=Cc2ccccc2O)s1)c1ccccc1 is below 30%. Could you check? No

State whether 30% exceeds cytotoxicity at 72 h, 0.015 µM recorded for COc1cc(C=Nc2nnc(S(=O)(=O)NC(=O)c3ccccc3)s2)ccc1O . Yes

Report whether reported cytotoxicity at 72 h, 0.015 µM is lower than 30% (strictly) for CC(=O)Nc1ccc(S(=O)(=O)Nc2nnc(S(=O)(=O)NC(=O)c3ccccc3N)s2)cc1 No

# TODO verify cytotoxicity at 72 h, 0.015 µM < 30% strictly for this compound: Nc1ccc(S(=O)(=O)Nc2nnc(S(=O)(=O)NC(=O)c3ccc(Cl)cc3)s2)cc1 No

Lab note: confirm whether the reported cytotoxicity at 72 h, 0.015 µM for this compound is below 30%, equality not counting. compound: Nc1nnc(S(=O)(=O)NC(=O)c2ccc([N+](=O)[O-])cc2)s1 No

Take the compound Nc1nnc(S(=O)(=O)NC(=O)c2ccccc2N)s1 and say whether its cytotoxicity at 72 h, 0.015 µM is less than 30%. No
